experiment: Clinical pharmacokinetics after oral administration; assay type: in vivo, human; conditions: human, plasma, po

{"columns": ["molecule", "half-life"],
 "data": [
  ["C[C@H](Nc1ccc(C#N)n(C)c1=O)c1cc2cc(Cl)ccc2[nH]c1=O [Olutasidenib, olutasidenib]", "~67 h"]
]}
